// data source = ChEMBL document CHEMBL5725686

Target: Rhodopsin kinase GRK1 (Homo sapiens)
Sequence (Q15835 whole entry): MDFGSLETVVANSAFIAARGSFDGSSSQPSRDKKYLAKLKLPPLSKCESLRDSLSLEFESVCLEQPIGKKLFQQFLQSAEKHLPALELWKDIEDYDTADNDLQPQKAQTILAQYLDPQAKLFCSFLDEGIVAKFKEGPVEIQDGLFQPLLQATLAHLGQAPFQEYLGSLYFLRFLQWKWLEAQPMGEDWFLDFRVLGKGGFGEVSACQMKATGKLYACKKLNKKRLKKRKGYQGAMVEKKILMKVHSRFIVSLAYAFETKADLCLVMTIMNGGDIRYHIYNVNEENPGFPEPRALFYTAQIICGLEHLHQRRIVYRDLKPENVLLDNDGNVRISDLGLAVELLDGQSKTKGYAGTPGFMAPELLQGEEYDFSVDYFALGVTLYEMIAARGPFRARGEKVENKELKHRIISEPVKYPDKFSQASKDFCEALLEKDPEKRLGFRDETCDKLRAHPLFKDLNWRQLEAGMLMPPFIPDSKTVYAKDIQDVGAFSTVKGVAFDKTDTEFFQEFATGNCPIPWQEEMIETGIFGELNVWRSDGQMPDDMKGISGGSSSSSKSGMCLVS
Assay: The low salt concentration and DDM were used to maximize GRK activity and disrupt small molecule aggregates from forming, respectively. Reactions were quenched with SDS loading buffer, separated via SDS-PAGE, dried and exposed with a phosphorimaging screen prior to quantification via Typhoon imager, as previously reported (see Thal et al., ACS Chemical Biology 7(11):1830-1839 (2012)). Data was analyzed and inhibition curves were fit via GraphPad Prism.
pIC50: −log10 of the molar value.
MEASURED_ENDPOINT: pIC50

| COMPOUND | TESTED_TARGET | OBSERVED_RESULT |
| --- | --- | --- |
| CC1=C(C(=O)Nc2ccc3[nH]ncc3c2)C(c2ccc(F)c(CC(=O)N(CCO)Cc3ccco3)c2)NC(=O)N1 (stereo unspecified) | Rhodopsin kinase GRK1 (Homo sapiens) | 4.68 |
